- Target Desc: T1, N-10 peptide (PSMGFR minus 10 amino acids from the N-terminus)
- T1 construct: also called N-10 PSMGFR; PSMGFR N-10
- T1 peptide: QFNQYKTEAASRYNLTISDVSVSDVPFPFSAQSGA
- Experiment: ELISA
Readout: binding result

INSERT INTO results (binder, measured_value) VALUES
  ('20A10 mouse monoclonal antibody (antibody, V domains shown, raised against PSMGFR; also called MN-20A10; anti-PSMGFR antibody 20A10) VH: EVMLVESGGGLVKPGGSLKLSCAASGFTFSTYAMSWIRQTPEKRLEWVASIGRAGSTYYSDSVKGRFTISRDNVRNILYLQMSSLRSEDTAMYYCARGPIYNDYDEFAYWGQGTLVTVSA VL: NIMMTQSPSSLAVSAGEKVTMSCKSSQSVLYSSNQKNYLAWYQQKPGQSPKLLIYWASTRESGVPDRFTGSGSGTDFTLTISSVQAEDLAVYYCHQYLSSLTFGAGTKLELK', 'binds'),
  ('5C6F3 mouse monoclonal antibody (antibody, V domains shown, raised against PSMGFR; also called MN-5C6F3; anti-PSMGFR antibody 5C6F3) VH: EVMLVESGGGLVKPGGSLKLSCAASGFTFSTYAMSWVRQTPEKRLEWVAAISNGGGYTYYPDSLKGRFTISRDNAKNTLYLQMSSLRSEDTATYYCARRYYDHYFDYWGQGTALTVSS VL: DVLMTQTPLSLPVSLGDQASISCRSSQTIVHSNGNTYLEWYLQKPGQSPKLLIYKVSNRFSGVPDRFSGSGSGTDFTLKISRVEAEDLGVYYCFQDSHVPLTFGAGTKLELK', 'binds');
